Listed compounds paired with reported Ligand charge
# METHOD: Ligand charge of maytansinoid conjugates
# Format: physicochemical
Where a SMILES comes first, the peptide text is derived from it. Bridges are numbered along the chain shown (N, C = ends). [ ]: non-standard residue; d: D form. The star is where a group is joined. NH(CH2)2SS(DM1) = COc1cc2cc(c1Cl)N(C)C(=O)C[C@H](OC(=O)[C@H](C)N(C)C(=O)CCSSCCN*)[C@]1(C)O[C@H]1[C@H](C)[C@@H]1C[C@@](O)(NC(=O)O1)[C@H](OC)/C=C/C=C(\C)C2; Octanoyl = CCCCCCCC(=O)*

compound="COc1cc2cc(c1Cl)N(C)C(=O)C[C@H](OC(=O)[C@H](C)N(C)C(=O)CCSSC[C@H](NC(=O)[C@@H]1CSSC[C@H](NC(=O)[C@@H](Cc3ccccc3)NC(=O)NC3CCCCC3)C(=O)N[C@@H](Cc3ccc(O)cc3)C(=O)N[C@H](Cc3c[nH]c4ccccc34)C(=O)N[C@@H](CCCCN)C(=O)N[C@@H]([C@@H](C)O)C(=O)N1)C(=O)NCc1ccccc1)[C@]1(C)O[C@H]1[C@H](C)[C@@H]1C[C@@](O)(NC(=O)O1)[C@H](OC)/C=C/C=C(\\C)C2 [Conjugate 26]" recorded_measurement=+1

Let us move to another entry and its Ligand charge.
# lookup: Ligand charge of CCCCCCCC(=O)N[C@H](Cc1ccccc1)C(=O)N[C@H]1CSSC[C@@H](C(=O)NCCSSCCC(=O)N(C)[C@@H](C)C(=O)O[C@H]2CC(=O)N(C)c3cc(cc(OC)c3Cl)C/C(C)=C/C=C/[C@@H](OC)[C@@]3(O)C[C@H](OC(=O)N3)[C@@H](C)[C@@H]3O[C@@]23C)NC(=O)[C@H]([C@@H](C)O)NC(=O)[C@H](CCCCN)NC(=O)[C@@H](Cc2c[nH]c3ccccc23)NC(=O)[C@H](Cc2ccc(O)cc2)NC1=O [Conjugate 21] (Octanoyl-[dF]CY[dW]KTC-{NH(CH2)2SS(DM1)}; disulfide 2-7) +1

====

Entries with their measured pKi, system human SSTR2 (Homo sapiens):
The scale used: pKi is minus the common logarithm of the concentration in molar units.

compound="COc1cc2cc(c1Cl)N(C)C(=O)C[C@H](OC(=O)[C@H](C)N(C)C(=O)CCSSC[C@@H](NC(=O)[C@@H]1CSSC[C@H](NC(=O)[C@@H](Cc3ccccc3)NC(C)=O)C(=O)N[C@@H](Cc3ccc(O)cc3)C(=O)N[C@H](Cc3c[nH]c4ccccc34)C(=O)N[C@@H](CCCCN)C(=O)N[C@@H]([C@@H](C)O)C(=O)N1)C(N)=O)[C@]1(C)O[C@H]1[C@H](C)[C@@H]1C[C@@](O)(NC(=O)O1)[C@H](OC)/C=C/C=C(\\C)C2 [Conjugate 31]" recorded_measurement=9.68

// next item, pKi requested
Fill in the recorded pKi for this compound, with human SSTR2 (Homo sapiens) as test system: CCNC(=O)N[C@H](Cc1ccccc1)C(=O)N[C@H]1CSSC[C@@H](C(=O)N[C@H](C(N)=O)C(C)(C)SSCCC(=O)N(C)[C@@H](C)C(=O)O[C@H]2CC(=O)N(C)c3cc(cc(OC)c3Cl)C/C(C)=C/C=C/[C@@H](OC)[C@@]3(O)C[C@H](OC(=O)N3)[C@@H](C)[C@@H]3O[C@@]23C)NC(=O)[C@H]([C@@H](C)O)NC(=O)[C@H](CCCCN)NC(=O)[C@@H](Cc2c[nH]c3ccccc23)NC(=O)[C@H](Cc2ccc(O)cc2)NC1=O [Conjugate 13] 10.74

====

Overview of reported Ligand charge across a group of molecules:
# METHOD: Ligand charge of maytansinoid conjugates
# Assay type: physicochemical

molecule="COc1cc2cc(c1Cl)N(C)C(=O)C[C@H](OC(=O)[C@H](C)N(C)C(=O)CCSSC[C@H](NC(=O)[C@@H]1CSSC[C@H](NC(=O)[C@@H](Cc3ccccc3)NC(=O)Nc3ccccc3)C(=O)N[C@@H](Cc3ccc(O)cc3)C(=O)N[C@H](Cc3c[nH]c4ccccc34)C(=O)N[C@@H](CCCCN)C(=O)N[C@@H]([C@@H](C)O)C(=O)N1)C(N)=O)[C@]1(C)O[C@H]1[C@H](C)[C@@H]1C[C@@](O)(NC(=O)O1)[C@H](OC)/C=C/C=C(\\C)C2 [Conjugate 42]" recorded_measurement=+1

Okay, next one:
# lookup: Ligand charge of COc1cc2cc(c1Cl)N(C)C(=O)C[C@H](OC(=O)[C@H](C)N(C)C(=O)CCSSC(C)(C)[C@H](NC(=O)[C@@H]1CSSC[C@H](NC(=O)[C@H](N)Cc3ccccc3)C(=O)N[C@@H](Cc3ccc(O)cc3)C(=O)N[C@H](Cc3c[nH]c4ccccc34)C(=O)N[C@@H](CCCCNC(=O)[C@@H](NC(=O)[C@@H](N)C(C)C)C(C)C)C(=O)N[C@@H]([C@@H](C)O)C(=O)N1)C(N)=O)[C@]1(C)O[C@H]1[C@H](C)[C@@H]1C[C@@](O)(NC(=O)O1)[C@H](OC)/C=C/C=C(\C)C2 [Conjugate 58] +2

====

# METHOD: Ligand charge of maytansinoid conjugates
# Assay type: physicochemical
QUANTITY: Ligand charge

Any idea what Ligand charge was measured for COc1cc2cc(c1Cl)N(C)C(=O)C[C@H](OC(=O)[C@H](C)N(C)C(=O)CCSSC(C)(C)[C@H](NC(=O)[C@@H]1CSSC[C@H](NC(=O)[C@@H](Cc3ccccc3)NS(=O)(=O)Cc3ccc(C(F)(F)F)cc3)C(=O)N[C@@H](Cc3ccc(O)cc3)C(=O)N[C@H](Cc3c[nH]c4ccccc34)C(=O)N[C@@H](CCCCN)C(=O)N[C@@H]([C@@H](C)O)C(=O)N1)C(N)=O)[C@]1(C)O[C@H]1[C@H](C)[C@@H]1C[C@@](O)(NC(=O)O1)[C@H](OC)/C=C/C=C(\C)C2 [Conjugate 14] ? +1

====

# METHOD: Chrom LogP of maytansinoid conjugates
# Format: physicochemical
Each item that follows carries a reported chromatographic logP.
I'd appreciate a reply containing only the number, no unit.

Recorded chromatographic logP, per entry:
molecule="COc1cc2cc(c1Cl)N(C)C(=O)C[C@H](OC(=O)[C@H](C)N(C)C(=O)CCC(C)(C)SSC[C@H](NC(=O)[C@@H]1CSSC[C@H](NC(=O)[C@H](N)Cc3ccccc3)C(=O)N[C@@H](Cc3ccc(O)cc3)C(=O)N[C@H](Cc3c[nH]c4ccccc34)C(=O)N[C@@H](CCCCN)C(=O)N[C@@H]([C@@H](C)O)C(=O)N1)C(N)=O)[C@]1(C)O[C@H]1[C@H](C)[C@@H]1C[C@@](O)(NC(=O)O1)[C@H](OC)/C=C/C=C(\\C)C2 [Conjugate 4]" recorded_measurement=2.21
molecule="COc1cc2cc(c1Cl)N(C)C(=O)C[C@H](OC(=O)[C@H](C)N(C)C(=O)CCSSC[C@H](NC(=O)[C@@H]1CSSC[C@H](NC(=O)[C@@H](Cc3ccccc3)NC(=O)Nc3ccccc3)C(=O)N[C@@H](Cc3ccc(O)cc3)C(=O)N[C@H](Cc3c[nH]c4ccccc34)C(=O)N[C@@H](CCCCN)C(=O)N[C@@H]([C@@H](C)O)C(=O)N1)C(N)=O)[C@]1(C)O[C@H]1[C@H](C)[C@@H]1C[C@@](O)(NC(=O)O1)[C@H](OC)/C=C/C=C(\\C)C2 [Conjugate 42]" recorded_measurement=2.87
molecule="COc1cc2cc(c1Cl)N(C)C(=O)C[C@H](OC(=O)[C@H](C)N(C)C(=O)CCSSC(C)(C)[C@H](NC(=O)[C@@H]1CSSC[C@H](NC(=O)[C@H](N)Cc3ccccc3)C(=O)N[C@@H](Cc3ccc(O)cc3)C(=O)N[C@H](Cc3c[nH]c4ccccc34)C(=O)N[C@@H](CCCCN)C(=O)N[C@@H]([C@@H](C)O)C(=O)N1)C(N)=O)[C@]1(C)O[C@H]1[C@H](C)[C@@H]1C[C@@](O)(NC(=O)O1)[C@H](OC)/C=C/C=C(\\C)C2 [Conjugate 6]" recorded_measurement=2.06

May I ask what chromatographic logP has been recorded for COc1cc2cc(c1Cl)N(C)C(=O)C[C@H](OC(=O)[C@H](C)N(C)C(=O)CCSSC[C@H](NC(=O)[C@@H]1CSSC[C@H](NC(=O)[C@@H](Cc3ccccc3)NS(C)(=O)=O)C(=O)N[C@@H](Cc3ccc(O)cc3)C(=O)N[C@H](Cc3c[nH]c4ccccc34)C(=O)N[C@@H](CCCCN)C(=O)N[C@@H]([C@@H](C)O)C(=O)N1)C(N)=O)[C@]1(C)O[C@H]1[C@H](C)[C@@H]1C[C@@](O)(NC(=O)O1)[C@H](OC)/C=C/C=C(\C)C2 [Conjugate 34] ? 2.57

Could you tell me which chromatographic logP is on file for COc1cc2cc(c1Cl)N(C)C(=O)C[C@H](OC(=O)[C@H](C)N(C)C(=O)CCSSC[C@H](NC(=O)[C@@H]1CSSC[C@H](NC(=O)[C@@H](Cc3ccccc3)NC(=O)NCc3ccccc3)C(=O)N[C@@H](Cc3ccc(O)cc3)C(=O)N[C@H](Cc3c[nH]c4ccccc34)C(=O)N[C@@H](CCCCN)C(=O)N[C@@H]([C@@H](C)O)C(=O)N1)C(N)=O)[C@]1(C)O[C@H]1[C@H](C)[C@@H]1C[C@@](O)(NC(=O)O1)[C@H](OC)/C=C/C=C(\C)C2 [Conjugate 28] ? 2.51

Data provenance: patent US20190125888A1
